- Test system: M14
- assay summary: NCI tumour cell line growth inhibition, 48 h
Activity calls are given as the source filed them. No stated cut-off is given here; in the data, active = GI50 up to about 1.1 µM and inactive = higher.
Listed molecules paired with reported GI50

- molecule: "NC(=O)C1CCCNC1 (stereo unspecified)"
  GI50: "> 100 µM (inactive)"
- molecule: "CCCCN1C(=O)CC2[C@@H]3CCc4cc(OC(C)=O)ccc4C3CC[C@]2(C)C1=O (stereo partly specified)"
  GI50: "> 10 µM (inactive)"
- molecule: "COc1cc(NCc2ccc3nc(OC)c(OC)nc3c2)cc(OC)c1OC"
  GI50: "> 100 µM (inactive)"
- molecule: "CN(C)C=[N+]=[N-]"
  GI50: "> 100 µM (inactive)"
- molecule: "C=CCO[C@H]1CC[C@@]2(C)C(CC[C@]3(C)C2CC=C2[C@@H]4[C@@H](C)C(C)CC[C@]4(C(=O)O)CCC23C)C1(C)C (stereo partly specified)"
  GI50: "17.5 µM (inactive)"
- molecule: "CC(C)(O)c1cc2c(cc1C(C)(C)O)-c1ccccc1-2"
  GI50: "> 100 µM (inactive)"
- molecule: "COc1cc(C(c2cccc3ccccc23)N2C(=O)CCC2C(=O)O)cc(OC)c1OC (stereo unspecified)"
  GI50: "> 100 µM (inactive)"
- molecule: "Cc1cc(N(CCC#N)S(=O)(=O)c2ccccc2)ccc1/C=N/c1ccc(C(=O)O)cc1"
  GI50: "9.77 µM (inactive)"
- molecule: "Cc1nc(-c2ccccc2)c(C)n2c1nc1ccccc12"
  GI50: "20.3 µM (inactive)"
- molecule: "C[C@H]1C(=O)O[C@@H]1[C@H]1COC(C)(C)O1"
  GI50: "> 100 µM (inactive)"
- molecule: "NC(=O)CCC(NC(=O)c1cccc2c(=O)c3ccccc3[nH]c12)C(=O)O (stereo unspecified)"
  GI50: "> 100 µM (inactive)"
- molecule: "Cc1ccc(S(=O)(=O)N/N=C/c2oc(-c3ccncc3)c(-c3ccncc3)c2[N+](=O)[O-])cc1"
  GI50: "> 100 µM (inactive)"
- molecule: "CCCCCC(=O)N[C@H]1CCc2cc(OC)c(OC)c(OC)c2-c2ccc(SC)c(=O)cc21"
  GI50: "0.016 µM (active)"
- molecule: "Nc1cc(N2CCOCC2)nc(=O)n1-c1ccccc1"
  GI50: "> 100 µM (inactive)"
- molecule: "COc1cc(OC)c2c(c1)C(=O)C(CC(C)O)=CC2=O (stereo unspecified)"
  GI50: "18.5 µM (inactive)"
- molecule: "c1ccc2c(CN3CCC(C4CCN(Cc5cccc6ccccc56)CC4)CC3)cccc2c1"
  GI50: "1.92 µM (inactive)"
- molecule: "O=P1(NCCCl)OCCC(OO)N1CCCl (stereo unspecified)"
  GI50: "21.9 µM (inactive)"
- molecule: "COc1ccc(C[C@@H]2CN(C(=O)c3ccccc3)[C@H](Cc3ccc(O)cc3)CN2C(=O)c2ccccc2)cc1Br"
  GI50: "> 100 µM (inactive)"
- molecule: "Cc1cccc2c(N)c3cccc(C(=O)NCC[N+](C)(C)Cc4c([N+](=O)[O-])ncn4C)c3nc12"
  GI50: "52.4 µM (inactive)"
- molecule: "O=C(/C=C/c1ccccc1O)c1ccccc1Cl"
  GI50: "54.5 µM (inactive)"
- molecule: "CC(C)(C)OC(=O)NCC(=O)NC1C/C(=N\\O)c2sccc21 (stereo unspecified)"
  GI50: "> 100 µM (inactive)"
